B1: Homeobox protein cut-like 1, residues 941 to 1008; numbered along this chain, P39880 (parent)
chain: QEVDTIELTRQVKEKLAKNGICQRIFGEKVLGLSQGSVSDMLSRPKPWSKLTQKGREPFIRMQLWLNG

- Variants of: B1
- EXPERIMENT DESCRIPTION: abundance fitness (aPCA) (normalised: wild type 0, dead -1); higher = more abundant; growth selection in yeast, the domain comes from the species named
- MEASUREMENT CONTEXT: Homo sapiens
MEASUREMENT LABEL: abundance fitness

* K50H | -0.184
* L51T | -0.745
* K15Y | 0.145
* V38H | -0.308
* R10L | -0.246
* S34Y | -0.108
* L33M | -0.045
* T9G | -0.047
* Q35P | 0.121
* L16C | -0.073
* Q23C | -0.281
* G32P | -0.21
* E2V | -0.16
* K50G | -0.194
* D4H | -0.346
* W48D | -1.08
* T5K | -0.121
* T9I | -0.113
* L33W | -0.115
* V38F | 0.048
* G36M | -0.058
* F26I | -0.45
